Hello, the source for this data is patent US20160264593A1, in case you need it.

Test: Pharmacokinetic study of 157 (and metabolite endothal) in SD rats, iv and po; plasma, liver, brain
Assay type: in vivo
Settings: female, SD (Sprague-Dawley), rat, in vivo, po, 1.5 mg/kg, 157 in plasma, PO 1.5 mg/kg, rat 1; read-out: MRT (0-t)
Measurement Type: MRT last (min)
Answers are plain numbers, in min.

input: Which measured MRT last value corresponds to CCCCCCCOC(=O)C1C2CCC(O2)C1C(=O)N1CCN(C)CC1 (stereo not shown) ?
output: 59.3

---

Experiment: Pharmacokinetic study of 157 (and metabolite endothal) in SD rats, iv and po; plasma, liver, brain
Assay type: in vivo
Settings: female, Sprague-Dawley (SD), rat, in vivo, iv, 1.5 mg/kg, 157 in Brain, iv 1.5 mg/kg, rat 1; read-out: MRT (0-t)
Measurement Type: MRT last

input: Which measured MRT last value corresponds to CCCCCCCOC(=O)C1C2CCC(O2)C1C(=O)N1CCN(C)CC1 (stereo not shown) ?
output: 18.3 min
